# Tested on: G-292-Clone-A141B1 (Osteosarcoma)
# Assay Text: Bliss excess, mean over the matrix (fraction); higher = more synergy
Assay Metric: Bliss excess

- CC1(C)CCC(CN2CCN(c3ccc(C(=O)NS(=O)(=O)c4ccc(NCC5CCOCC5)c([N+](=O)[O-])c4)c(Oc4cnc5[nH]ccc5c4)c3)CC2)=C(c2ccc(Cl)cc2)C1 [Venetoclax] + COc1cc(Nc2ncc3c(n2)-c2ccc(Cl)cc2C(c2c(F)cccc2OC)=NC3)ccc1C(=O)O [Alisertib] (first compound max 1 µM, 7x7, partner max 10 µM): -0.0793
- Cc1cc2ncnn2cc1Nc1ncc2c(n1)n(C1CCOCC1)c(=O)n2C [AZD7648] + COc1cc([C@@H]2c3cc4c(cc3[C@@H](O[C@@H]3O[C@@H]5CO[C@@H](C)O[C@H]5[C@H](O)[C@H]3O)[C@H]3COC(=O)[C@H]23)OCO4)cc(OC)c1O [Etoposide] (first compound max 10 µM, 7x7, partner max 10 µM): 0.0701
- NC1(C(=O)N[C@@H](CCO)c2ccc(Cl)cc2)CCN(c2ncnc3[nH]ccc23)CC1 [Capivasertib] + CCN(CCO)CCCOc1ccc2c(Nc3cc(CC(=O)Nc4cccc(F)c4)[nH]n3)ncnc2c1 [AZD2811] (first compound max 10 µM, 7x7, partner max 1 µM): 0.0116
- C=CCn1c(=O)c2cnc(Nc3ccc(N4CCN(C)CC4)cc3)nc2n1-c1cccc(C(C)(C)O)n1 [AZD1775] + CCc1c2c(nc3ccc(O)cc13)-c1cc3c(c(=O)n1C2)COC(=O)[C@]3(O)CC [SN-38] (first compound max 1 µM, partner max 0.3 µM): 0.023

====

Each entry below carries its recorded Bliss excess.
# Tested on: SN12C (Kidney Carcinoma)
# Assay Text: Bliss excess, mean over the matrix (fraction); higher = more synergy
Assay Metric: Bliss excess

• Cc1c2c(nn1C)CSCc1cc(n(C)n1)CSc1cc(c3ccccc3c1)OCCCc1c(C(=O)O)n(C)c3c-2c(Cl)ccc13 [AZD5991] + Cn1cnc2c(F)c(Nc3ccc(Br)cc3Cl)c(C(=O)NOCCO)cc21 [Selumetinib] (first compound max 1 µM, 7x7, partner max 3 µM) = -0.0425
• Cn1cnc2c(F)c(Nc3ccc(Br)cc3Cl)c(C(=O)NOCCO)cc21 [Selumetinib] + C[C@@H]1COCCN1C2=NC(=NC(=C2)C3(CC3)[S@](=N)(=O)C)C4=C5C=CNC5=NC=C4 [AZD6738] (first compound max 10 µM, 7x7, partner max 10 µM) = -0.0169
• N#Cc1cnc(Nc2cc(NC[C@H]3CNCCO3)c(C(F)(F)F)cn2)cn1 [SRA737] + Nc1ccn([C@@H]2O[C@H](CO)[C@@H](O)C2(F)F)c(=O)n1 [Gemcitabine] (first compound max 10 µM, 7x7, partner max 0.3 µM) = 0.0884
• C[C@@H](Nc1cc(F)cc(F)c1)c1cc(C(=O)N(C)C)cc2c(=O)cc(N3CCOCC3)oc12 [AZD8186] + CC(=O)c1c(C)c2cnc(Nc3ccc(N4CCNCC4)cn3)nc2n(C2CCCC2)c1=O [Palbociclib] (first compound max 10 µM, 7x7, partner max 10 µM) = 0.0245
• CC1(C)CCC(CN2CCN(c3ccc(C(=O)NS(=O)(=O)c4ccc(NCC5CCOCC5)c([N+](=O)[O-])c4)c(Oc4cnc5[nH]ccc5c4)c3)CC2)=C(c2ccc(Cl)cc2)C1 [Venetoclax] + Cn1cnc2c(F)c(Nc3ccc(Br)cc3Cl)c(C(=O)NOCCO)cc21 [Selumetinib] (first compound max 1 µM, 7x7, partner max 3 µM) = -0.0489
• C[C@@H](Oc1cc(-c2cnn(C3CCNCC3)c2)cnc1N)c1c(Cl)ccc(F)c1Cl [Crizotinib] + CC1=C(C(=CC=C1)Cl)NC(=O)C2=CN=C(S2)NC3=CC(=NC(=N3)C)N4CCN(CC4)CCO [Dasatinib] (first compound max 10 µM, 7x7, partner max 2 µM) = -0.0384
• COc1cccc(OCCCN)c1-c1cc(Nc2cnc(C#N)cn2)n[nH]1 [Prexasertib] + C[C@@H]1COCCN1C2=NC(=NC(=C2)C3(CC3)[S@](=N)(=O)C)C4=C5C=CNC5=NC=C4 [AZD6738] (first compound max 1 µM, 7x7, partner max 10 µM) = 0.0012

====

# System: HT-29 (Colorectal Carcinoma)
# Assay Text: combination Emax (second highest fraction inhibited in the dose matrix, 72 h); higher = more inhibition; extreme values may be limits of the assay
Assay Metric: combination Emax

• COc1cccc(OCCCN)c1-c1cc(Nc2cnc(C#N)cn2)n[nH]1 [Prexasertib] + CN(C)CCCOc1ccc(-c2ccc3ncc4c(c3c2)n(C2CCOCC2)c(=O)n4C)cn1 [AZD0156] (first compound max 1 µM, 7x7, partner max 1 µM) = 0.858
• CC1(C)CCC(CN2CCN(c3ccc(C(=O)NS(=O)(=O)c4ccc(NCC5CCOCC5)c([N+](=O)[O-])c4)c(Oc4cnc5[nH]ccc5c4)c3)CC2)=C(c2ccc(Cl)cc2)C1 [Venetoclax] + Cc1cc2ncnn2cc1Nc1ncc2c(n1)n(C1CCOCC1)c(=O)n2C [AZD7648] (first compound max 1 µM, 7x7, partner max 10 µM) = 0.205

====

# Tested on: SW1990 (Pancreatic Carcinoma)
# Assay Text: combination Emax (second highest fraction inhibited in the dose matrix, 72 h); higher = more inhibition; extreme values may be limits of the assay
Assay Metric: combination Emax

- CCN(CCO)CCCOc1ccc2c(Nc3cc(CC(=O)Nc4cccc(F)c4)[nH]n3)ncnc2c1 [AZD2811] + C[C@@H]1COCCN1C2=NC(=NC(=C2)C3(CC3)[S@](=N)(=O)C)C4=C5C=CNC5=NC=C4 [AZD6738] (first compound max 1 µM, 7x7, partner max 10 µM): 0.513
- COc1cccc(OCCCN)c1-c1cc(Nc2cnc(C#N)cn2)n[nH]1 [Prexasertib] + Cc1cc2ncnn2cc1Nc1ncc2c(n1)n(C1CCOCC1)c(=O)n2C [AZD7648] (first compound max 1 µM, 7x7, partner max 10 µM): 0.703
- C[C@@H]1COCCN1c1cc(C2([S@](C)(=N)=O)CC2)nc(-c2ccnc3[nH]ccc23)n1 [AZD6738] + C1CC(C1)(C(=O)[O-])C(=O)[O-].N.N.[Pt+2] [Carboplatin] (first compound max 10 µM, 7x7, partner max 10 µM): 0.422
- COc1cccc(OCCCN)c1-c1cc(Nc2cnc(C#N)cn2)n[nH]1 [Prexasertib] + C[C@@H]1COCCN1C2=NC(=NC(=C2)C3(CC3)[S@](=N)(=O)C)C4=C5C=CNC5=NC=C4 [AZD6738] (first compound max 1 µM, 7x7, partner max 10 µM): 0.695
- Cn1cnc2c(F)c(Nc3ccc(Br)cc3Cl)c(C(=O)NOCCO)cc21 [Selumetinib] + C[C@@H]1COCCN1C2=NC(=NC(=C2)C3(CC3)[S@](=N)(=O)C)C4=C5C=CNC5=NC=C4 [AZD6738] (first compound max 10 µM, 7x7, partner max 10 µM): 0.502
- Cc1cc2ncnn2cc1Nc1ncc2c(n1)n(C1CCOCC1)c(=O)n2C [AZD7648] + C=CCn1c(=O)c2cnc(Nc3ccc(N4CCN(C)CC4)cc3)nc2n1-c1cccc(C(C)(C)O)n1 [AZD1775] (first compound max 10 µM, partner max 1 µM): 0.467
- C[C@@H]1COCCN1c1cc(C2([S@](C)(=N)=O)CC2)nc(-c2ccnc3[nH]ccc23)n1 [AZD6738] + O=C(c1cc(Cc2n[nH]c(=O)c3ccccc23)ccc1F)N1CCN(C(=O)C2CC2)CC1 [Olaparib] (first compound max 10 µM, 7x7, partner max 10 µM): 0.471
- CN(CCO)CC[C@H](CSc1ccccc1)Nc1ccc(S(=O)(=O)NC(=O)c2ccc(N3CCC([C@@H](O)c4ccccc4-c4ccc(Cl)cc4)CC3)cc2)cc1S(=O)(=O)C(F)(F)F [AZD4320] + C1CN(CCC1(C(=O)N[C@@H](CCO)C2=CC=C(C=C2)Cl)N)C3=NC=NC4=C3C=CN4 [Capivasertib] (first compound max 1 µM, 7x7, partner max 3 µM): 0.0829
- C=CCn1c(=O)c2cnc(Nc3ccc(N4CCN(C)CC4)cc3)nc2n1-c1cccc(C(C)(C)O)n1 [AZD1775] + C1CN(CCC1(C(=O)N[C@@H](CCO)C2=CC=C(C=C2)Cl)N)C3=NC=NC4=C3C=CN4 [Capivasertib] (first compound max 3 µM, partner max 3 µM): 0.584
- O=C(c1cc(Cc2n[nH]c(=O)c3ccccc23)ccc1F)N1CCN(C(=O)C2CC2)CC1 [Olaparib] + COc1nnc2ccc(N3CCC(c4ccc(OCCN5CCN(C)C(=O)[C@H]5C)cc4)CC3)nn12 [AZD5153] (first compound max 10 µM, 7x7, partner max 1 µM): 0.195
- Cn1cnc2c(F)c(Nc3ccc(Br)cc3Cl)c(C(=O)NOCCO)cc21 [Selumetinib] + CCN(CCO)CCCOc1ccc2c(Nc3cc(CC(=O)Nc4cccc(F)c4)[nH]n3)ncnc2c1 [AZD2811] (first compound max 10 µM, 7x7, partner max 1 µM): 0.245
- O=C(c1cc(Cc2n[nH]c(=O)c3ccccc23)ccc1F)N1CCN(C(=O)C2CC2)CC1 [Olaparib] + Cc1c2c(nn1C)CSCc1cc(n(C)n1)CSc1cc(c3ccccc3c1)OCCCc1c(C(=O)O)n(C)c3c-2c(Cl)ccc13 [AZD5991] (first compound max 10 µM, 7x7, partner max 1 µM): 0.238
- C=CCn1c(=O)c2cnc(Nc3ccc(N4CCN(C)CC4)cc3)nc2n1-c1cccc(C(C)(C)O)n1 [AZD1775] + C[C@@H]1COCCN1C2=NC(=NC(=C2)C3(CC3)[S@](=N)(=O)C)C4=C5C=CNC5=NC=C4 [AZD6738] (first compound max 1 µM, partner max 10 µM): 0.623
- CN(C)CCCOc1ccc(-c2ccc3ncc4c(c3c2)n(C2CCOCC2)c(=O)n4C)cn1 [AZD0156] + CCN(CCO)CCCOc1ccc2c(Nc3cc(CC(=O)Nc4cccc(F)c4)[nH]n3)ncnc2c1 [AZD2811] (first compound max 1 µM, 7x7, partner max 1 µM): 0.0964
